# EXPERIMENTAL TARGET: Casein kinase I isoform alpha (Homo sapiens)
# ASSAY PROTOCOL: CSNK1A1 High ATP Assay
pIC50 by entry:
Answer as the number alone; pIC50 is minus log10 of concentration in mol/L.

Check out these entries, answers already filled in.
Recall the reported pIC50 of Cc1ccccc1Nc1c(-c2ccnc(NC(=O)Cc3ccc(F)cc3)c2)[nH]c2c1C(=O)NC1(CCC1)C2 on Casein kinase I isoform alpha (Homo sapiens) and write it down.
7.91

# return pIC50 for CC(C(=O)Nc1cc(-c2[nH]c3c(c2Nc2ccccc2F)C(=O)N(C)CC3)ccn1)c1ccc(F)cc1 (stereo unspecified) , test system: Casein kinase I isoform alpha (Homo sapiens)
6.86

Further cases:
Look up and report measured pIC50 (Casein kinase I isoform alpha (Homo sapiens)) for the following compound: CC1(C)Cc2[nH]c(-c3ccnc(NC(=O)Cc4ccc(F)cc4)c3)c(Nc3cccc(F)n3)c2C(=O)N1 [US12227501, Example 126]
7.32

Please indicate recorded pIC50 of Cc1cccc(CC(=O)Nc2cc(-c3[nH]c4c(c3Nc3ccccc3)C(=O)N(C)CC4)ccn2)c1 measured with Casein kinase I isoform alpha (Homo sapiens).
6.85

Given CC1(C)Cc2[nH]c(-c3ccnc(NC(=O)Cc4ccc(F)cc4)c3)c(Nc3cccc(F)n3)c2C(=O)N1 [US12227501, Example 127] , report its pIC50 on Casein kinase I isoform alpha (Homo sapiens).
7.64

* * *

# EXPERIMENTAL TARGET: Casein kinase I isoform alpha (Homo sapiens, UniProt P48729)
# Sequence (P48729 whole entry, canonical isoform): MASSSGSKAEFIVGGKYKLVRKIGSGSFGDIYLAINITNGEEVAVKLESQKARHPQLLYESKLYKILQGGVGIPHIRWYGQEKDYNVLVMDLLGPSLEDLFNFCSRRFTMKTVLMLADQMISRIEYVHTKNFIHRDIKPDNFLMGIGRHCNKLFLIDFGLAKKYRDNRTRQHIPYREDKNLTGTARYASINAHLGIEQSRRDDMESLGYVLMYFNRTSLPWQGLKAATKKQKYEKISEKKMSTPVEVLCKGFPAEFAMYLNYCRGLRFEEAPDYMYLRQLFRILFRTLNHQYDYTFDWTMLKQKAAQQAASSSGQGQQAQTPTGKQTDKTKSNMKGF
# ASSAY PROTOCOL: CSNK1A1 High ATP Assay
Binarize IC50 at 0.05 µM; below is t, at or above is f.

Illustrative cases are given below, each with its answer.
Consider the compound O=C(Cc1ccc(F)cc1)Nc1cc(-c2[nH]c3c(c2Nc2ccccc2)C(=O)N(CC(F)(F)F)CC3)ccn1 . Is its IC50 strictly less than 0.05 µM?
f

A record lists CN1C(=O)c2c([nH]c(-c3ccnc(NC(=O)Cc4ccc(F)cc4)c3)c2Nc2ccccc2)CC12CCC2 . Is its IC50 below 0.05 µM?
t

Here's an entry: Cc1ccccc1CC(=O)Nc1cc(-c2[nH]c3c(c2Nc2ccccc2)C(=O)N(C)CC3)ccn1 . Is its IC50 below 0.05 µM?
f

Say whether its IC50 is strictly beneath 0.05 µM. Entry: Cc1ccccc1Nc1c(-c2ccnc(NC(=O)Cc3ccc(F)cc3)c2)[nH]c2c1C(=O)NC(C)(C)C2
f

Does CC1(C)Cc2[nH]c(-c3ccnc(NC(=O)Cc4ccc(F)cc4)c3)c(Nc3ccccc3)c2C(=O)N1 have IC50 strictly under 0.05 µM?
f

Then there is this compound:
For this compound, is IC50 lower than 0.05 µM? Cc1c(F)cccc1Nc1c(-c2ccnc(NC(=O)Cc3ccc(F)cc3)c2)[nH]c2c1C(=O)NC(C)(C)C2
f

* * *

# EXPERIMENTAL TARGET: Casein kinase I isoform delta (Homo sapiens, UniProt P48730)
# Sequence (P48730 whole entry, canonical isoform): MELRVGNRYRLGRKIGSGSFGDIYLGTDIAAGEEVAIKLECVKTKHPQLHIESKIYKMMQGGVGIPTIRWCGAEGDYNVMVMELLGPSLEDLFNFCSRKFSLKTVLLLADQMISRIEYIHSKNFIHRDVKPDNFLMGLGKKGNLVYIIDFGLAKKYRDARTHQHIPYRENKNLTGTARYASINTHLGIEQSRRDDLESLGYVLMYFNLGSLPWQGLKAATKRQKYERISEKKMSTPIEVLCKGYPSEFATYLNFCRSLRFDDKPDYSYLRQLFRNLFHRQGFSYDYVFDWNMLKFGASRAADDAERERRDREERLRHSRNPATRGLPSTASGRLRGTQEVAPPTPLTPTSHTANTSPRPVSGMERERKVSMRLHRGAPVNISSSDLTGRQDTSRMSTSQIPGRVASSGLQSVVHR
# ASSAY PROTOCOL: CSNK1D Assay
EXPERIMENTAL ENDPOINT: pIC50
When answering, recall that pIC50 equals minus log10 of the concentration in mol/L, and write that number alone.

Kindly indicate its recorded pIC50. Item: CC1(C)Cc2[nH]c(-c3ccnc(NC(=O)Cc4ccc(F)cc4)c3)c(Nc3cccc(F)n3)c2C(=O)N1 [US12227501, Example 126]
7.84

Please indicate pIC50 recorded for Cc1ccccc1Nc1c(-c2ccnc(NC(=O)Cc3ccc(F)cc3)c2)[nH]c2c1C(=O)NC(C)(C)C2 [US12227501, Example 113]
7.79

Give a short answer stating reported pIC50 for CC1(C)Cc2[nH]c(-c3ccnc(NC(=O)Cc4ccc(F)cc4)c3)c(Nc3ccccc3)c2C(=O)N1 [US12227501, Example 22] .
7.92

Return pIC50 for the following compound: Cc1ccccc1CC(=O)Nc1cc(-c2[nH]c3c(c2Nc2ccccc2)C(=O)N(C)CC3)ccn1 [US12227501, Example 71]
8.19

Recall and state the measured pIC50 for Cc1cccc(CC(=O)Nc2cc(-c3[nH]c4c(c3Nc3ccccc3)C(=O)N(C)CC4)ccn2)c1 [US12227501, Example 70] .
8.44

Return value of pIC50 for input Cc1c(F)cccc1Nc1c(-c2ccnc(NC(=O)Cc3ccc(F)cc3)c2)[nH]c2c1C(=O)NC(C)(C)C2 [US12227501, Example 131] , no commentary.
7.94

Give the reported value of pIC50 for this record: Cc1ccccc1Nc1c(-c2ccnc(NC(=O)Cc3ccc(F)cc3)c2)[nH]c2c1C(=O)NC1(CCC1)C2 [US12227501, Example 142]
8.03

Please supply the value of reported pIC50 for the item CN1C(=O)c2c([nH]c(-c3ccnc(NC(=O)Cc4ccc(F)cc4)c3)c2Nc2ccccc2)CC12CCC2 [US12227501, Example 156]
8.03

* * *

# EXPERIMENTAL TARGET: Casein kinase I isoform alpha (Homo sapiens)
# ASSAY PROTOCOL: CSNK1A1 Assay 2
Measured pIC50 accompanies every entry in the list below.
pIC50 here is simply -log10 of the concentration when that concentration is written in mol/L.

Sample records with pIC50:
Please report the measured pIC50 for CC(C(=O)Nc1cc(-c2[nH]c3c(c2Nc2ccccc2F)C(=O)N(C)CC3)ccn1)c1ccc(F)cc1 (stereo not drawn)
8.50

Retrieve pIC50 measured for Cc1ccccc1Nc1c(-c2ccnc(NC(=O)Cc3ccc(F)cc3)c2)[nH]c2c1C(=O)NC1(CCC1)C2 and print it.
8.29

Now for another entry.
Quick one: give measured pIC50 for CC1(C)Cc2[nH]c(-c3ccnc(NC(=O)Cc4ccc(F)cc4)c3)c(Nc3ccccc3)c2C(=O)N1
8.37

* * *

Heads up, these compounds all have log10 of IC50 values measured for Epidermal growth factor receptor [669-1210] (UniProt P00533).
Heads up, the numbers here are log10 of IC50 in µM units.

Quote Epidermal growth factor receptor [669-1210] (UniProt P00533) log10 of IC50 for entry Cc1ccccc1CC(=O)Nc1cc(-c2[nH]c3c(c2Nc2ccccc2)C(=O)N(C)CC3)ccn1 .
0.87

More entries:
Quote log10 of IC50 with test system Epidermal growth factor receptor [669-1210] (UniProt P00533) for CN1C(=O)c2c([nH]c(-c3ccnc(NC(=O)Cc4ccc(F)cc4)c3)c2Nc2ccccc2)CC12CCC2
0.82

Give log10 of IC50 only, for Cc1cccc(CC(=O)Nc2cc(-c3[nH]c4c(c3Nc3ccccc3)C(=O)N(C)CC4)ccn2)c1 , using Epidermal growth factor receptor [669-1210] (UniProt P00533) data.
0.31

Retrieve log10 of IC50 on Epidermal growth factor receptor [669-1210] (UniProt P00533); query CN1CCc2[nH]c(-c3ccnc(NC(=O)[C@@H]4C[C@@H]4F)c3)c(Nc3ccccc3)c2C1=O
Sequence (P00533 669-1210): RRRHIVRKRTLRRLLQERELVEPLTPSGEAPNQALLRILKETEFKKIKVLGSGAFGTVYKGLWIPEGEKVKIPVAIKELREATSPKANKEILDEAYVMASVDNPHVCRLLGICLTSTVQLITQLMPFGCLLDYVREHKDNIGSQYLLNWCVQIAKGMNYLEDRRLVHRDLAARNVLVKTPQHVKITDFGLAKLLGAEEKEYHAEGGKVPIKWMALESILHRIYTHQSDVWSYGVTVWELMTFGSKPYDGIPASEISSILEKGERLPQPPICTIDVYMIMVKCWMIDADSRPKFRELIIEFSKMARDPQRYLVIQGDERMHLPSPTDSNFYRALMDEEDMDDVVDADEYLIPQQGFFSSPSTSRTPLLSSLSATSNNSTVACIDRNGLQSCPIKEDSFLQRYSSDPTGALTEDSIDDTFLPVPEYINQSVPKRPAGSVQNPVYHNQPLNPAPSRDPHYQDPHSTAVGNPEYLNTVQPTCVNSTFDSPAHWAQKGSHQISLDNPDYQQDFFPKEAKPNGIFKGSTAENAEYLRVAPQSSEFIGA
-1.07

Look up and report measured log10 of IC50 (Epidermal growth factor receptor [669-1210] (UniProt P00533)) for the following compound: CC1(C)Cc2[nH]c(-c3ccnc(NC(=O)Cc4ccc(F)cc4)c3)c(Nc3ccccc3)c2C(=O)N1
-0.09

Name the recorded log10 of IC50 of Cc1c(F)cccc1Nc1c(-c2ccnc(NC(=O)Cc3ccc(F)cc3)c2)[nH]c2c1C(=O)NC(C)(C)C2 , assay system Epidermal growth factor receptor [669-1210] (UniProt P00533).
0.04

* * *

Entries below carry reported pIC50 on Epidermal growth factor receptor [669-1210] (UniProt P00533).
pIC50: −log10 of the molar value.

Some compounds with recorded pIC50:
Query pIC50 for CC1(C)Cc2[nH]c(-c3ccnc(NC(=O)Cc4ccc(F)cc4)c3)c(Nc3cccc(F)n3)c2C(=O)N1
< 4.70

Tell us which pIC50 value is on record for CC(C(=O)Nc1cc(-c2[nH]c3c(c2Nc2ccccc2)C(=O)N(CC(F)(F)F)CC3)ccn1)c1ccc(F)cc1 (centres undefined)
< 4.70

For the compound Cc1ccccc1Nc1c(-c2ccnc(NC(=O)Cc3ccc(F)cc3)c2)[nH]c2c1C(=O)NC1(CCC1)C2 , give its reported pIC50.
< 4.70

Could you now look at the following compound, please?
# return recorded pIC50 for entry O=C(Cc1ccc(F)cc1)Nc1cc(-c2[nH]c3c(c2Nc2ccccc2)C(=O)N(CC(F)(F)F)CC3)ccn1
< 4.70

This collection of values is drawn from BindingDB's records for patent US12227501.
